# protocol-description: intrinsic clearance, human
# Format: in vitro ADME
experimental-endpoint: CLint scaled (mL/min/kg)
Write the number in mL/min/kg without appending the unit.

Any idea what its CLint scaled is? The compound is CCOC(=O)N1CCC(N2CCC[C@@H](NC(=O)c3ccccc3C)C2)CC1
11.2

----------
# protocol-description: oral plasma:brain level
# Format: in vivo, male Sprague-Dawley rats
# condition: male, Sprague-Dawley, rat, brain/plasma, po, 10 mg/kg, Brain:Plasma, 10 mg/kg oral, 90 minute endpoint, individual animal
experimental-endpoint: Kp at 1.5 h
In your answer, state the number alone without any accompanying words.

Any idea what its Kp at 1.5 h is? The compound is CCOC(=O)N1CCC(N2CCC[C@@H](NC(=O)c3ccccc3C)C2)CC1
1.54

----------
# system-name: M1 (Rattus norvegicus, UniProt P08482)
# Sequence (P08482 whole entry): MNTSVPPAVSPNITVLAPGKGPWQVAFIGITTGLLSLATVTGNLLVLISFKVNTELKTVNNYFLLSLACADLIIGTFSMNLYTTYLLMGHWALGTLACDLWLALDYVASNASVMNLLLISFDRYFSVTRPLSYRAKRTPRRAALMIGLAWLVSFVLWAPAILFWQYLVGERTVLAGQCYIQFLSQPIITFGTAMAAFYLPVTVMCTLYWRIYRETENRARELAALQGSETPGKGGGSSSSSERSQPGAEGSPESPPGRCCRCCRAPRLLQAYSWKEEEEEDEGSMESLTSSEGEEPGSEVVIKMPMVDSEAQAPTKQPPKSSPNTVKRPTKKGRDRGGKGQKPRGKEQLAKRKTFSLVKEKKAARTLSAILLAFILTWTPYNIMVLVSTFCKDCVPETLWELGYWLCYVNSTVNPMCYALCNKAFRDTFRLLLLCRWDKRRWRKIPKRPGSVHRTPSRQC
# protocol-description: functional M1 agonist assay in rat HTS high-expressing CHO cell line
# Type: cell-based
# condition: 10 µM M1 single point screen
experimental-endpoint: M1 activation

smiles=CCOC(=O)N1CCC(N2C[C@@H]3C[C@H]2CN3C(=O)c2ccccc2C)CC1 experimental_endpoint="M1 activation" result="less than 30%"
smiles=CCOC(=O)N1CCC(N2CCN(C(=O)c3ccccc3C)CC2)CC1 experimental_endpoint="M1 activation" result="less than 30%"
smiles=CCOC(=O)N1CCC(N2C[C@H]3CN(C(=O)c4ccccc4C)C[C@H]3C2)CC1 experimental_endpoint="M1 activation" result="less than 30%"
